The origin of these recorded values is paper PMC9317316.

system: B. subtilis (ATCC 6633); assay: Antibacterial viability (CFU) assay, IC50; format: cell-based; conditions: Bacillus subtilis, ATCC6633, B. subtilis (ATCC 6633)
pIC50: −log10 of the molar value.
measureName: pIC50

- molecule: "Cc1[nH]nc2c1C(c1cccc(O)c1Cl)C(C#N)=C(N)O2 (stereo not drawn)"
  studyTarget: "B. subtilis (ATCC 6633)"
  valueMeasured: 4.20
- molecule: "COc1cccc(C2C(C#N)=C(N)OC(C)=C2C(=O)OCc2ccccc2)c1[N+](=O)[O-] (stereo not drawn)"
  studyTarget: "B. subtilis (ATCC 6633)"
  valueMeasured: 4.33
- molecule: "COC(=O)C1=C(C)OC(N)=C(C#N)C1c1ccccc1C(=O)O (stereo not drawn)"
  studyTarget: "B. subtilis (ATCC 6633)"
  valueMeasured: 4.19
- molecule: "COc1cc(OC)c(C2C(C#N)=C(N)Oc3n[nH]c(C)c32)c(OC)c1 (stereo not drawn)"
  studyTarget: "B. subtilis (ATCC 6633)"
  valueMeasured: 4.38
- molecule: "CCOC(=O)C1=C(C)OC(N)=C(C#N)C1c1c(OC)cc(OC)cc1OC (stereo not drawn)"
  studyTarget: "B. subtilis (ATCC 6633)"
  valueMeasured: 4.30
- molecule: "CC1=C(C(=O)OCc2ccccc2)C(c2ccc(C#N)cc2)C(C#N)=C(N)O1 (stereo not drawn)"
  studyTarget: "B. subtilis (ATCC 6633)"
  valueMeasured: 4.38

* * *

tested on: S. enteric (ATCC 43972); test: Antibacterial viability (CFU) assay, IC50; type: cell-based; settings: read-out: IC50
pIC50: −log10 of the molar value.

- compound: "CC1=C(C(=O)OCc2ccccc2)C(c2ccc(C#N)cc2)C(C#N)=C(N)O1 (centres unmarked)"
  pIC50: 4.12
- compound: "CC1=C(C(=O)OCc2ccccc2)C(c2ccc(F)cc2)C(C#N)=C(N)O1 (centres unmarked)"
  pIC50: 4.04
- compound: "COc1cccc(C2C(C#N)=C(N)OC(C)=C2C(=O)OCc2ccccc2)c1[N+](=O)[O-] (centres unmarked)"
  pIC50: 4.00
- compound: "CCOC(=O)C1=C(C)OC(N)=C(C#N)C1c1cccc(OC)c1[N+](=O)[O-] (centres unmarked)"
  pIC50: 3.93
- compound: "Cc1[nH]nc2c1C(c1cccc(O)c1Cl)C(C#N)=C(N)O2 (centres unmarked)"
  pIC50: 3.98

* * *

Listed here are molecules together with their documented pIC50.
tested on: S. enteric (ATCC 43972); assay: Antibacterial viability (CFU) assay, IC50; format: cell-based; details: read-out: IC50
pIC50: −log10 of the molar value.

- molecule: "COc1cc(C2C(C#N)=C(N)OC(C)=C2C(=O)OCc2ccccc2)cc(OC)c1OC (centres unmarked) [4d]"
  pIC50: 4.18
- molecule: "CC1=C(C(=O)OCc2ccccc2)C(c2ccc(Cl)cc2Cl)C(C#N)=C(N)O1 (centres unmarked) [4m]"
  pIC50: 4.21
- molecule: "CCOC(=O)C1=C(C)OC(N)=C(C#N)C1c1c(OC)cc(OC)cc1OC (centres unmarked) [4h]"
  pIC50: 3.95
- molecule: "CC1(C)S[C@@H]2[C@H](NC(=O)[C@H](N)c3ccccc3)C(=O)N2[C@H]1C(=O)O [Ampicillin, reference compound]"
  pIC50: 4.83
- molecule: "COC(=O)C1=C(C)OC(N)=C(C#N)C1c1ccccc1C(=O)O (centres unmarked) [4a]"
  pIC50: 3.92
- molecule: "CC1=C(C(=O)OCc2ccccc2)C(c2ccccc2Cl)C(C#N)=C(N)O1 (centres unmarked) [4l]"
  pIC50: 4.11
- molecule: "COC(=O)C1=C(C)OC(N)=C(C#N)C1c1cccc(O)c1Cl (centres unmarked) [4f]"
  pIC50: 4.03
- molecule: "COc1cc(OC)c(C2C(C#N)=C(N)Oc3n[nH]c(C)c32)c(OC)c1 (centres unmarked) [5b]"
  pIC50: 3.97
- molecule: "CCOC(=O)C1=C(C)OC(N)=C(C#N)C1c1cccc(-c2ccccc2)c1 (centres unmarked) [4e]"
  pIC50: 4.02
- molecule: "CCOC(=O)C1=C(C)OC(N)=C(C#N)C1c1cccc(O)c1Cl (centres unmarked) [4g]"
  pIC50: 4.28
- molecule: "COc1ccc(C2C(C#N)=C(N)OC(C)=C2C(=O)OCc2ccccc2)cc1 (centres unmarked) [4j]"
  pIC50: 4.29
